tested.system: Polyunsaturated fatty acid 5-lipoxygenase (Homo sapiens)
Sequence (P09917 whole entry): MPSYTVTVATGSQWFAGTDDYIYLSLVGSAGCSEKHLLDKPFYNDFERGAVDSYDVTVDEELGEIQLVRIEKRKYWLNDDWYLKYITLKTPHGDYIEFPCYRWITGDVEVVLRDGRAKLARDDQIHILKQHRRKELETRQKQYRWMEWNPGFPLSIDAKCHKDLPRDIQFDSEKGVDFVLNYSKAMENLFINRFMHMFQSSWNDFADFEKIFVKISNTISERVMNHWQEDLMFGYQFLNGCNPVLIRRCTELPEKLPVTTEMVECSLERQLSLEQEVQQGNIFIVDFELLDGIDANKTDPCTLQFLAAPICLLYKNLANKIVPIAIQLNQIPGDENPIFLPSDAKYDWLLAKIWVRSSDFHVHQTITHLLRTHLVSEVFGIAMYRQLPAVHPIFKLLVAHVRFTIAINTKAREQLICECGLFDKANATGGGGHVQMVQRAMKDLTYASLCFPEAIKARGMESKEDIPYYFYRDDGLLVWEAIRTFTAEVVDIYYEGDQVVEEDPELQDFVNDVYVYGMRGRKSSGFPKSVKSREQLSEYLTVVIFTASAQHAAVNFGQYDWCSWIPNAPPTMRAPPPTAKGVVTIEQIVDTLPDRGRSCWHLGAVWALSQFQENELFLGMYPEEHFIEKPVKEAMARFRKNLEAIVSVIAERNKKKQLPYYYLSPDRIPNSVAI
procedure.details: The compound was tested for the inhibition of 5-lipoxygenase (5-lo) in human whole blood (HWBL)
measurement.name: IC50 (µM)

In the examples that follow, each entry is paired with its recorded IC50.
CC(=O)Oc1nc(-c2ccccc2)sc1-c1ccccc1 | 0.45
CCCc1sc(-c2ccccc2)nc1OC(=O)NC | 5.1

I. Cc1nc(O)c(-c2ccccc2)s1
II. Cc1ccc(-c2nc(O)c(-c3ccccc3)s2)cc1
stdin: Between I and II , which one shows the larger IC50 value? Identify your pick by its label.
stdout: I
(I: 5.1 µM, II: 0.74 µM)

1. CCCc1sc(-c2ccccc2)nc1OC(=O)OCC
2. Oc1nc(-c2cccnc2)sc1-c1ccccc1
stdin: Choose between 1 and 2 : whose measured IC50 value is numerically larger? Identify your pick by its label.
stdout: 1
